Sourced from patent US20260226073A1

Molecular target: human recombinant CBL-b (human Biotin CBL-b recombinant protein a.a. 39-426) (Homo sapiens, UniProt Q13191)
Construct: human Biotin CBL-b recombinant protein a.a; 39-426; Biotin (biotinylated)
Sequence (Q13191 39-426): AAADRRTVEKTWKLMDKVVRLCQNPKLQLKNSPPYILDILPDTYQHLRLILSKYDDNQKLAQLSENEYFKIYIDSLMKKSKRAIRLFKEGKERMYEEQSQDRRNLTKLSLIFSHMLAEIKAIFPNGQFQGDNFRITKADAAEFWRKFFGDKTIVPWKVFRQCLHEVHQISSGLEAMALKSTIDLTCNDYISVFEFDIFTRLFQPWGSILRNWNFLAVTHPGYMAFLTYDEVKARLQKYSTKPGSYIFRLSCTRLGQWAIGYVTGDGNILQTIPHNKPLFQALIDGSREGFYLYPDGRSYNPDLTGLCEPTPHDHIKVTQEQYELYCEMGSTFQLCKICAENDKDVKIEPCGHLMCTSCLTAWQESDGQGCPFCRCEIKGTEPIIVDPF
Experiment: Biochemical assay for CBL-b inhibition (ligand displacement TR-FRET)
Settings: 50 nM CBL-b, 0.3 μM Bodipy FL-Probe, read-out: IC50 (CBL-b inhibition, group)
VALUE_TYPE: IC50

Reference set (2 entries):
CC(NCC1CCC1)c1cc(Cl)nc(N2Cc3ccc(-c4ccc(Cl)cc4-c4nncn4C)cc3C2=O)c1 (stereo not drawn) ... < 80 nM
C[C@H](N[C@H](C)C1CC1)c1cc(Cl)nc(N2Cc3ccc(C4(Cc5nncn5C)COC4)cc3C2=O)c1 (single isomer, unassigned) ... < 80 nM

The record that follows has no IC50 shown yet.
Which IC50 reading was recorded for the compound `C[C@H]1CCCN(Cc2cc(N3CCCCC3)cc(N3Cc4ccc(C5(Cc6nncn6C)COC5)cc4C3=O)c2)C1` ?
300 to 5000 nM
